Test system: Malme-3M
methodSummary: NCI tumour cell line growth inhibition, 48 h
The source made the active and inactive calls. Cut-off read from the data, not from the text of the source: active = GI50 up to about 1.1 µM and inactive = higher. Non-standard residues stand in square brackets, D forms with d. Square brackets hold non-standard residues; d marks the D form. Residues, ends and D or L forms follow the SMILES beside them. Peptide text beside a SMILES is read from it. * marks the point of attachment. ξ: configuration not given here. *: point of attachment. ξF = NC(Cc1ccccc1)C(=O)O; Ac5c = NC1(C(=O)O)CCCC1; Cbz = O=C(OCc1ccccc1)*; Boc = CC(C)(C)OC(=O)*; Aib = CC(C)(N)C(=O)O; tBu = CC(C)(C)*
experimentalEndpoint: GI50

{"compound": "CCN(CC)c1ccc2cc(-c3nnc(-c4ccccc4O)o3)c(=O)oc2c1", "experimentalEndpoint": "GI50", "resultValue": "14.9 µM (inactive)"}
{"compound": "COc1ccc(CNc2cnc3cc(N)ccc3n2)cc1OC", "experimentalEndpoint": "GI50", "resultValue": "> 100 µM (inactive)"}
{"compound": "CCOC(=O)C1=CNC2=N[C@H]3CCCC[C@@H]3N2C1=O", "experimentalEndpoint": "GI50", "resultValue": "> 100 µM (inactive)"}
{"compound": "O=c1cc(-c2ccccc2)[nH]c2ccc(N3CCCC3)cc12", "experimentalEndpoint": "GI50", "resultValue": "> 100 µM (inactive)"}
{"compound": "C[N+](C)(C)CC(=O)N/N=C(\\C(=O)NC1=C(Cl)C(=O)c2ccccc2C1=O)C(C#N)c1nc(-c2ccc([N+](=O)[O-])cc2)cs1 (stereo not given)", "experimentalEndpoint": "GI50", "resultValue": "1.86 µM (inactive)"}
{"compound": "Cc1ccc2c(O)cc(-c3cccc(Cl)c3)nc2n1", "experimentalEndpoint": "GI50", "resultValue": "0.0661 µM (active)"}
{"compound": "COc1cc2c(c(O)c1OC)C(O)C1CCC(=O)N1C2c1cccc2ccccc12 (stereo not given)", "experimentalEndpoint": "GI50", "resultValue": "36.9 µM (inactive)"}
{"compound": "CC(OC(C)(C)C)C(NC(=O)C(CCCCNC(=O)OC(C)(C)C)NC(=O)C(Cc1c[nH]c2ccccc12)NC(=O)C(N)Cc1ccccc1)C(=O)NC(Cc1ccccc1)C(=O)NC1(C(=O)O)CCCC1 (stereo not given) (H-FWK(Boc)T(tBu)F[Ac5c]-OH; configuration not given here)", "experimentalEndpoint": "GI50", "resultValue": "> 100 µM (inactive)"}
{"compound": "C#CCSc1nc(N)c2ncn(C3OC(COP(=O)(O)O)C(O)C3O)c2n1 (stereo not given)", "experimentalEndpoint": "GI50", "resultValue": "> 239 µM (inactive)"}
{"compound": "O=C1CCC(=O)C12CCc1cccc(O)c12", "experimentalEndpoint": "GI50", "resultValue": "> 100 µM (inactive)"}
{"compound": "Cc1cc2c(=Cc3ccc(N(C)C)cc3)c3ccccc3n2[n+]1C", "experimentalEndpoint": "GI50", "resultValue": "1.08 µM (active)"}
{"compound": "Clc1ccc(Nc2nn3c(CCCCCCCCc4nnc5sc(Nc6ccc(Cl)cc6)nn45)nnc3s2)cc1", "experimentalEndpoint": "GI50", "resultValue": "> 100 µM (inactive)"}
{"compound": "Cc1cc(/N=C/c2ccc(Cl)cc2)n(-c2ccccc2)n1", "experimentalEndpoint": "GI50", "resultValue": "49.3 µM (inactive)"}
{"compound": "NC(CCc1ncc(-c2ccccc2)s1)C(=O)O (stereo not given)", "experimentalEndpoint": "GI50", "resultValue": "> 100 µM (inactive)"}
{"compound": "O=C(SC1=NCCN1)c1cccc2ccccc12", "experimentalEndpoint": "GI50", "resultValue": "78.9 µM (inactive)"}
{"compound": "COc1ccc(OC)c(/C=C2\\CCc3ccccc3C2=O)c1", "experimentalEndpoint": "GI50", "resultValue": "3.72 µM (inactive)"}
{"compound": "CC(C)(NC(=O)OCc1ccccc1)C(=O)NC(Cc1ccccc1)C(=O)O (stereo not given) (Cbz-[Aib]-[ξF]-OH)", "experimentalEndpoint": "GI50", "resultValue": "> 100 µM (inactive)"}
{"compound": "CC1=C(N(C)C)C(=O)c2nc3n(c2C1=O)CCC3OC(N)=O (stereo not given)", "experimentalEndpoint": "GI50", "resultValue": "11.2 µM (inactive)"}
{"compound": "C/C(=N\\NC(=S)N1CCCCCC1)c1ccccn1", "experimentalEndpoint": "GI50", "resultValue": "0.0316 µM (active)"}
{"compound": "C=CCNC(=S)N/C=C(\\C(=O)OCC)C(=O)C(=O)OCC", "experimentalEndpoint": "GI50", "resultValue": "> 100 µM (inactive)"}

Entry source: ChEMBL document CHEMBL1201862
